# Test system: HT29 colon
# measurement.protocol: NCI tumour cell line growth inhibition, 48 h
attribute.measured: GI50

Fill blank: measured GI50 of the molecule `COc1cccc(/C=C/C(=O)c2ccc(SC)cc2)c1OC` is ____.
9.97 µM

What value of GI50 has been reported for the following molecule? `CCCCCCCCCCCCCCCC1=NCCN1`
1.87 µM

Can you look up the measured GI50 of `O=C1C(Cl)=C(Nc2ccc(Nc3ccccc3)c(NC3=C(Cl)C(=O)c4ccccc4C3=O)c2)C(=O)c2ccccc21` for me?
16.1 µM

----------
For each record, write down the corresponding TGI.
# Test system: SW-620 colon
# measurement.protocol: NCI tumour cell line growth inhibition, 48 h

Under SW-620 colon: TGI value of `CC(=O)O[C@H]([C@H](OC(C)=O)[C@H](C)OC(C)=O)[C@@H](/C=C/[C@@H]1CC=CC(=O)O1)OC(C)=O` ?
> 100 µM

Please state recorded TGI (tested on SW-620 colon) of `O=C(/C=C\c1cccc2ccccc12)c1ccc(F)cc1`
20.4 µM

For SW-620 colon, provide TGI of CC(=O)OC(CC1(C)C(C)CCC23COC(=O)C2=CCCC31)c1ccoc1 (stereo not given) please.
66.8 µM

Notebook: pull reported TGI for SW-620 colon, entry CCOC(=O)CC(c1ccccc1)C(C)(C(=O)OCC)C(=O)OCC (stereo not given)
> 100 µM

Observed TGI on SW-620 colon for `COc1ccc(C#Cc2ccc(=O)oc2-c2cc(OC)c(OC)c(OC)c2)cc1O` , please.
> 100 µM

State its TGI on SW-620 colon: `COc1ccc(/C=C/C(=O)/C=C/c2ccc(OC)cc2OC)c(OC)c1`
83.6 µM

Give SW-620 colon TGI for `CCOC(=O)c1nc2ccc(C(F)(F)F)cc2nc1Nc1cc(OC)c(OC)c(OC)c1`
> 100 µM

Please tell me: TGI of `COc1ccc2c3c(Nc4cccc(/C(C)=N\O)c4)[nH]c4ccccc4c-3c(N=O)c2c1` , system SW-620 colon?
> 100 µM

Param readout = TGI; param system = SW-620 colon; param query = `COc1cccc(/C=N/NC(=O)CSCC(=O)N/N=C/c2cccc(OC)c2OC)c1OC` ; response: value
> 100 µM

API: value(readout= TGI, system= SW-620 colon, query= `CC(C)N(O)C(=N)c1ccccc1` )
> 100 µM

Given the entry `c1cc(-c2ccc(-c3ccc(-c4ccc(-c5ccncc5)o4)cc3)o2)ccn1` , what TGI was observed with SW-620 colon?
> 100 µM

Param readout= TGI; system= SW-620 colon; entry= `COc1ccc(/C=C2\CN(C(=O)C(Cl)Cl)C/C(=C\c3ccc(OC)cc3)C2=O)cc1` ; returns value.
1.78 µM

Given the entry `O=C(CCl)NCCNc1nccc(Nc2ccc(S(=O)(=O)Nc3ccccn3)cc2)n1` , what TGI was observed with SW-620 colon?
7.27 µM

Give SW-620 colon TGI for CC(Oc1ccccc1Cl)C(=O)NN1C(=O)CC(=O)N(c2ccccc2)C1=S (stereo not given)
> 100 µM

What reported TGI corresponds to `O=C(O)/C(Cl)=C(\Cl)C(=O)c1ccccc1` on SW-620 colon?
> 100 µM

Lookup: TGI / SW-620 colon / `O=C(O)[C@H](Cc1c[nH]c2ccccc12)N1C(=O)c2ccccc2C1=O`
> 100 µM

Kindly state the measured TGI obtained for CC(=O)OCC1OC(n2ccc(=O)[nH]c2=O)C(OC(C)=O)C(OC(C)=O)C1OC(C)=O (stereo not given) with SW-620 colon.
> 100 µM

// fetch SW-620 colon TGI for `N.N.N.N.N.NC(=O)[O-].[Co+3].[I-]`
> 100 µM

Find the measured TGI: item CC(CCC[C@H](C)CO)[C@H]1[C@@H](O)C(O)C2[C@@H]3C[C@@H](O)C4(O)C[C@@H](O)CC[C@]4(C)C3CC[C@@]21C (stereo not given in full) , target or system SW-620 colon.
> 100 µM

// lookup TGI | system=SW-620 colon | key= `COc1cc2c3cc1Oc1c(OC)c(OC)cc4c1C(=NCC4)Cc1ccc(cc1)Oc1cc(ccc1O)C[C@H]3N(C)CC2`
36.7 µM
